# assaySystem: GST-hnRNPA2B1 (Homo sapiens, UniProt P22626 1-353)
# Sequence (P22626 whole entry): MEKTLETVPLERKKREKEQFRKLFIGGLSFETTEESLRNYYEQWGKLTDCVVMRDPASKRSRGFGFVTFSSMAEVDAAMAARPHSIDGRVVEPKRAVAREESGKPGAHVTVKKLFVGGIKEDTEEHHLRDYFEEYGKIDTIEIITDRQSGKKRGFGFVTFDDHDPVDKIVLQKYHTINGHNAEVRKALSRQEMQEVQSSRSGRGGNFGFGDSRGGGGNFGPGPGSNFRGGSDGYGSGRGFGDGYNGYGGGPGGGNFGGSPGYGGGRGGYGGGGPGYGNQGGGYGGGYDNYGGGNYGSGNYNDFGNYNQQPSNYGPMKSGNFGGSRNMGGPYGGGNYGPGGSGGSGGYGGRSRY
# testDescription: AlphaScreen kinetics (koff/kon); 30 nM protein; kon 523664 M-1 min-1, koff 0.02091 min-1; AlphaScreen: 25 mM HEPES pH 7.4, 100 mM NaCl, 0.01% BSA, RT 1 h; REMSA: 20 mM HEPES pH 7.5, 50 mM KCl, 0.5 ug BSA, 0.25% glycerol, RT; pull-down: 25 mM HEPES pH 7.5, 100 mM NaCl, 4 C
# details: protein: recombinant; tags: N-terminal GST (pGEX-6P-1); label: 5'-biotin-TEG; single strand; weak predicted secondary structure (-0.5 kcal/mol)
measurementName: pKd
Quick note: pKd values are minus log10 of concentrations in mol/L.

Lookup result for GGGGAGGUUAGGGAGGAGGGGGGUAGGCGCC (ssRNA) [EXOmotif RNA (biotin)] ; measured pKd: 7.40
